Molecular target: BCL-XL (Homo sapiens (Human), UniProt Q07817)
Sequence (Q07817 1-212): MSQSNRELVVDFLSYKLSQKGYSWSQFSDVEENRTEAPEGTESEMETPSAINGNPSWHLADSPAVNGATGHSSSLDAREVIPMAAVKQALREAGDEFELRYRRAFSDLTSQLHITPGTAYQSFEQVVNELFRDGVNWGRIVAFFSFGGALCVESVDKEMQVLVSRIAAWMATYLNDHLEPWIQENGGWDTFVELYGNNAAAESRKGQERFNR
Assay: Protein-protein interaction assay BCL-XL/Bad BH3 peptide (BCL-XL assay, TR-FRET)
Details: read-out: BCL-XL Assay IC50 (median)
Procedure: Assay 2 Protein-Protein Interaction Assay: BCL-XL/Bad BH3 Peptide (BCL-XL Assay) The dose-dependent inhibition by the compounds described in this invention of the interaction between BCL-XL and the BH3 domain of Bad (both human) was determined using a steady state binding competition assay with time-resolved fluorescence energy transfer (TR-FRET) readout. […]
Recorded IC50 for the following compounds

Examples from the recorded data:
{"COMPOUND": "Cc1c2c(nn1C)C(CCN1CCOCC1)OCCCCn1c(C(=O)O)c(CCCOc3cccc4cc(F)ccc34)c3ccc(Cl)c-2c31 (single isomer, unassigned; enantiomer 1) [Example 17]", "MEASURED ENDPOINT": "IC50", "VALUE OBSERVED": "> 20 µM"}
{"COMPOUND": "CCc1c2c(nn1C)C(CCC1CCOCC1)OCCCCn1c(C(=O)O)c(CCCOc3cccc4cc(F)ccc34)c3ccc(Cl)c-2c31 (racemic) [Example 60]", "MEASURED ENDPOINT": "IC50", "VALUE OBSERVED": "15.4 µM"}
{"COMPOUND": "CCc1c2c(nn1C)C(CCO)OCCCCn1c(C(=O)O)c(CCCOc3cccc4cc(F)ccc34)c3ccc(Cl)c-2c31 (racemic) [Example 44]", "MEASURED ENDPOINT": "IC50", "VALUE OBSERVED": "12.5 µM"}
{"COMPOUND": "CCc1c2c(nn1C)C(CCOC)OCCCCn1c(C(=O)O)c(CCCOc3cccc4cc(F)ccc34)c3ccc(Cl)c-2c31 (single isomer, unassigned; enantiomer 2) [Example 43]", "MEASURED ENDPOINT": "IC50", "VALUE OBSERVED": "17.2 µM"}
{"COMPOUND": "CCc1c2c(nn1C)C(CCO)OCCCCn1c(C(=O)O)c(CCCOc3cccc4cc(F)ccc34)c3ccc(Cl)c-2c31 (single isomer, unassigned; enantiomer 2) [Example 46]", "MEASURED ENDPOINT": "IC50", "VALUE OBSERVED": "> 20 µM"}
{"COMPOUND": "CCc1c2c(nn1C)C(CCCN1CCOCC1)OCCCCn1c(C(=O)O)c(CCCOc3cccc4cc(F)ccc34)c3ccc(Cl)c-2c31 (racemic) [Example 65]", "MEASURED ENDPOINT": "IC50", "VALUE OBSERVED": "> 20 µM"}

Next item in the queue.
Request: Enter IC50 (test system BCL-XL (Homo sapiens (Human), UniProt Q07817)) for CCc1c2c(nn1C)C(CCN1CCC(F)(F)C1)OCCCCn1c(C(=O)O)c(CCCOc3cccc4cc(F)ccc34)c3ccc(Cl)c-2c31 (racemic) [Example 55]
Result: > 20 µM

---

test system: SUDHL5 cells; experiment: Induction of caspase-3/7 activity in SUDHL5 cells (Assay 4); format: cell-based; conditions: Homo sapiens, SU-DHL-5, 3 h, caspase-3/7 induction, 3 h; read-out: Caspase SUDHL5 EC50 (median)
MEASURED ENDPOINT: pEC50
// pEC50 is dimensionless: -log10 of concentration (M)

{"COMPOUND": "CCc1c2c(nn1C)C(CCOC)OCCCCn1c(C(=O)O)c(CCCOc3cccc4cc(F)ccc34)c3ccc(Cl)c-2c31 (racemic) [Example 41]", "VALUE OBSERVED": 7.01}
{"COMPOUND": "CCc1c2c(nn1C)C(CC(C)(C)O)OCCCCn1c(C(=O)O)c(CCCOc3cccc4cc(F)ccc34)c3ccc(Cl)c-2c31 (racemic) [Example 52]", "VALUE OBSERVED": 6.38}
{"COMPOUND": "CCc1c2c(nn1C)C(CCN1CCOCC1)OCCCCn1c(C(=O)O)c(CCCOc3cccc4ccccc34)c3ccc(F)c-2c31 (racemic) [Example 10]", "VALUE OBSERVED": 6.96}

Request: Please list pEC50 recorded for the compound CCc1c2c(nn1C)C(CCC(C)(C)O)OCCCCn1c(C(=O)O)c(CCCOc3cccc4cc(F)ccc34)c3ccc(Cl)c-2c31 (racemic) [Example 74]
Result: 7.35

Request: Fill in reported pEC50 for this entry: Cc1c2c(nn1C)C(CCO)OCCCCn1c(C(=O)O)c(CCCOc3cccc4ccccc34)c3ccc(Cl)c-2c31 (racemic) [Example 26]
Result: 6.92

Request: Identify the reported pEC50 for the following entry. Cc1c2c(nn1C)C(C)OCCCCn1c(C(=O)O)c(CCCOc3cccc4ccccc34)c3cccc-2c31 (racemic) [Example 1]
Result: 5.64
